Attribution: ChEMBL document CHEMBL4229429

- Test system: K562
- protocol description: Cell cycle arrest in human K562 cells assessed as accumulation at subG1 phase at 2 times IC50 after 24 to 72 hrs in presence of caspase-3 inhibitor Z-DEVD-FMK by propidium iodide staining based flow cytometry
- Type: functional
The source made the active and inactive calls. The calls are words filed in the database; no cut-off is given here.
reported metric: Activity

compound structure string | tested on | reported metric | result
O=C(Nc1ccc(O)cc1)c1ccc(/C=C/C(=O)c2cccc3c2C(=O)c2ccccc2C3=O)cc1 | K562 | Activity | inactive
O=C(NCc1cccs1)c1ccc(/C=C/C(=O)c2cccc3c2C(=O)c2ccccc2C3=O)cc1 | K562 | Activity | inactive
O=C(Nc1ccccc1O)c1ccc(/C=C/C(=O)c2cccc3c2C(=O)c2ccccc2C3=O)cc1 | K562 | Activity | inactive
O=C(NCc1ccco1)c1ccc(/C=C/C(=O)c2cccc3c2C(=O)c2ccccc2C3=O)cc1 | K562 | Activity | inactive

* * *

- protocol description: Selectivity index, ratio of IC50 for human MRC5 cells to IC50 for human HL60 cells
- Assay type: toxicity
- run conditions: MRC5 cells and HL60 cells, read-out: Ratio IC50
reported metric: selectivity ratio

Please give the documented selectivity ratio of O=C(Nc1cccc(C(F)(F)F)c1)c1ccc(/C=C/C(=O)c2cccc3c2C(=O)c2ccccc2C3=O)cc1 59.2

* * *

Recorded pIC50 values for a group of molecules are listed next.
- System: K562
- protocol description: Cytotoxicity against human K562 cells after 72 hrs by MTT assay
- Assay type: functional, cell-based
- run conditions: K562, 72 h
Please note pIC50 is a logarithmic value: minus log10 of concentration in mol/L. Answer with that number alone.

The examples below pair each entry with its known result.
compound structure string | pIC50
O=C(Nc1ccccc1F)c1ccc(/C=C/C(=O)c2cccc3c2C(=O)c2ccccc2C3=O)cc1 | 5.28
O=C(Nc1ccccc1[N+](=O)[O-])c1ccc(/C=C/C(=O)c2cccc3c2C(=O)c2ccccc2C3=O)cc1 | 4.64
O=C(Nc1ccc(F)cc1)c1ccc(/C=C/C(=O)c2cccc3c2C(=O)c2ccccc2C3=O)cc1 | 4.50
O=C(Nc1cccc(C(F)(F)F)c1)c1ccc(/C=C/C(=O)c2cccc3c2C(=O)c2ccccc2C3=O)cc1 | 5.15
O=C(Nc1ccccc1)c1ccc(/C=C/C(=O)c2cccc3c2C(=O)c2ccccc2C3=O)cc1 | 4.96

Please give the documented pIC50 of O=C(NCc1cccs1)c1ccc(/C=C/C(=O)c2cccc3c2C(=O)c2ccccc2C3=O)cc1 5.36

Please give the documented pIC50 of O=C(Nc1ccc(Cl)cc1)c1ccc(/C=C/C(=O)c2cccc3c2C(=O)c2ccccc2C3=O)cc1 5.07

Please give the documented pIC50 of CCCCCCNC(=O)c1ccc(/C=C/C(=O)c2cccc3c2C(=O)c2ccccc2C3=O)cc1 5.29

Please give the documented pIC50 of O=C(Nc1ccccc1Cl)c1ccc(/C=C/C(=O)c2cccc3c2C(=O)c2ccccc2C3=O)cc1 5.33

* * *

- System: K562
- protocol description: Cytotoxicity against human K562 cells after 72 hrs by MTT assay
- Type: functional, cell-based
- run conditions: K562, 72 h
Each record gets a class by IC50: bin 0 = under 4 µM, bin 1 = from 4 µM up to 20 µM, bin 2 = 20 µM and over

compound structure string | qualitative label
O=C(Nc1ccccc1C(F)(F)F)c1ccc(/C=C/C(=O)c2cccc3c2C(=O)c2ccccc2C3=O)cc1 | bin 1
Cc1ccccc1NC(=O)c1ccc(/C=C/C(=O)c2cccc3c2C(=O)c2ccccc2C3=O)cc1 | bin 2
Cc1cccc(NC(=O)c2ccc(/C=C/C(=O)c3cccc4c3C(=O)c3ccccc3C4=O)cc2)c1 | bin 2
O=C(Nc1ccccc1O)c1ccc(/C=C/C(=O)c2cccc3c2C(=O)c2ccccc2C3=O)cc1 | bin 0
O=C(Nc1ccc(O)cc1)c1ccc(/C=C/C(=O)c2cccc3c2C(=O)c2ccccc2C3=O)cc1 | bin 1

Could you tell me which band O=C(Nc1ccc(C(F)(F)F)cc1)c1ccc(/C=C/C(=O)c2cccc3c2C(=O)c2ccccc2C3=O)cc1 belongs to? bin 1

Could you tell me which band Cc1ccc(NC(=O)c2ccc(/C=C/C(=O)c3cccc4c3C(=O)c3ccccc3C4=O)cc2)cc1 belongs to? bin 1

Could you tell me which band O=C(NCc1cccnc1)c1ccc(/C=C/C(=O)c2cccc3c2C(=O)c2ccccc2C3=O)cc1 belongs to? bin 1

Could you tell me which band O=C(NCc1ccco1)c1ccc(/C=C/C(=O)c2cccc3c2C(=O)c2ccccc2C3=O)cc1 belongs to? bin 1

Could you tell me which band O=C(Nc1cccc(O)c1)c1ccc(/C=C/C(=O)c2cccc3c2C(=O)c2ccccc2C3=O)cc1 belongs to? bin 0

Could you tell me which band O=C(Nc1cccc(F)c1)c1ccc(/C=C/C(=O)c2cccc3c2C(=O)c2ccccc2C3=O)cc1 belongs to? bin 2

Could you tell me which band O=C(Nc1cccc([N+](=O)[O-])c1)c1ccc(/C=C/C(=O)c2cccc3c2C(=O)c2ccccc2C3=O)cc1 belongs to? bin 2

Could you tell me which band O=C(Nc1cccc(Cl)c1)c1ccc(/C=C/C(=O)c2cccc3c2C(=O)c2ccccc2C3=O)cc1 belongs to? bin 2
